Assay summary: in vitro
Run conditions: dog, MDCK
Measured parameter: Papp (×10⁻⁶ cm/s)
The answer is to be given in ×10⁻⁶ cm/s; state only the numeric part.

According to the records, this molecule "CCN(C(=O)c1c(-c2ccccc2Cl)noc1C)c1cccc(Cl)c1" displays Papp of 44.8

* * *

Assay summary: Permeability in artificial membrane assay
Type: ADME, cell membranes
Run conditions: PAMPA; read-out: permeability
Measured parameter: Papp (×10⁻⁶ cm/s)
The answer is to be given in ×10⁻⁶ cm/s; state only the numeric part.

According to the records, this compound "CCN(C(=O)c1c(-c2ccccc2Cl)noc1C)c1cccc(Cl)c1" displays Papp of 31
